- MEASUREMENT_TARGET: T1, mouse programmed cell death protein 1 Fc fusion protein (mPD-1-Fc), mPD-1 C60S (aa 25-167) (Mus musculus, UniProt Q02242, stabilised)
- T1 construct: not cleaved; source: Expi293F, purified (Protein A, SEC; dimeric fraction); not shown: Fc (human), C-terminal, kept
- MEASUREMENT_DESCRIPTION: SPR; Carterra LSA; Fab from the ammonium sulfate precipitate of the culture supernatant immobilised on a NiHC200M chip; hPD-1 (1-1024 nM) or mPD-1-Fc (4-1024 nM) as analyte, fourfold dilution series, no regeneration; HBS-EP pH 7.4, 25 °C; medians over the spots of a construct, KD = koff/kon
- DETAILS: one partner purified
PROPERTY_MEASURED: pKd
One number for each entry, as −log10 of the molar value.

Field: example entries. Status: answers known.
* toripalimab Fab H.G57A (Fab, V domains shown, heavy chain of Sm3 with this change; numbers count from the chain's first residue; as the light chain of Sm3; source: Brevibacillus, culture supernatant (ammonium sulfate precipitate); not shown: 6xHis, C-terminal, kept; 6xHN, C-terminal, kept) VH: QGQLVQSGAEVKKPGASVKVSCKASGYTFTDYEMHWVRQAPIHGLEWIGVIESETGATAYNQKFKGRVTITADKSTSTAYMELSSLRSEDTAVYYCAREGITTVATTYYWYFDVWGQGTTVTVSS VL: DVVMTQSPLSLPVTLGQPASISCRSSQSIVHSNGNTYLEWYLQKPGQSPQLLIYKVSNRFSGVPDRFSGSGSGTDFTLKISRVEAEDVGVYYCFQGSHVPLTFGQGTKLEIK | 6.90
* toripalimab Fab L.S28Y (Fab, V domains shown, as the heavy chain of Sm3; light chain of Sm3 with this change; numbers count from the chain's first residue; source: Brevibacillus, culture supernatant (ammonium sulfate precipitate); not shown: 6xHis, C-terminal, kept; 6xHN, C-terminal, kept) VH: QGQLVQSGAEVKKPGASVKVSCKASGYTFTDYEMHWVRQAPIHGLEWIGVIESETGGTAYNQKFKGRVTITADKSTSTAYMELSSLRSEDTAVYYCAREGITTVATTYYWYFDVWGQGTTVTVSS VL: DVVMTQSPLSLPVTLGQPASISCRSSQYIVHSNGNTYLEWYLQKPGQSPQLLIYKVSNRFSGVPDRFSGSGSGTDFTLKISRVEAEDVGVYYCFQGSHVPLTFGQGTKLEIK | 6.86

Here is the next item to consider.
Consider the binder toripalimab Fab L.N58Y (Fab, V domains shown, as the heavy chain of Sm3; light chain of Sm3 with this change; numbers count from the chain's first residue; source: Brevibacillus, culture supernatant (ammonium sulfate precipitate); not shown: 6xHis, C-terminal, kept; 6xHN, C-terminal, kept) VH: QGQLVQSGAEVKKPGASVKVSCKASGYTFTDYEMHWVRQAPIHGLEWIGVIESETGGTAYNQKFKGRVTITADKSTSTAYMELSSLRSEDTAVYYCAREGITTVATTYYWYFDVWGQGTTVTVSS VL: DVVMTQSPLSLPVTLGQPASISCRSSQSIVHSNGNTYLEWYLQKPGQSPQLLIYKVSYRFSGVPDRFSGSGSGTDFTLKISRVEAEDVGVYYCFQGSHVPLTFGQGTKLEIK and give its measured pKd.
6.65
